- System: KM20L2 colon
- procedureSummary: NCI tumour cell line growth inhibition, 48 h
reportedMetric: TGI

Consider the worked cases shown below.
| compound | reportedMetric | observedMeasurement |
| --- | --- | --- |
| O=c1[nH]c(-c2ccc(-c3nc4cc([N+](=O)[O-])ccc4c(=O)[nH]3)cc2)nc2cc([N+](=O)[O-])ccc12 | TGI | > 100 µM |
| C=CC1C(OC2OC(CO)C(O)C(O)C2O)OC=C(C(=O)OC)C1CC=O (stereo not drawn) | TGI | > 100 µM |

Now for a further compound.
The measured TGI associated with CCSc1nc(=[N+]2CCCC2)ss1 reads > 100 µM
